experiment: In vitro toxicity on uninfected Phytohemagglutininin stimulated human PBM cell; format: cell-based
Can you tell me MTC for the items I'm about to list?
Give the number; µM is assumed, so skip it.

Q: Please report MTC for the following molecule: CC1CCCCN1c1cc(-c2ccccn2)nc2ccccc12 (configuration not stated)
Result: 100

Q: Determine from records and report MTC for CCN(CCN(C)C)c1cc(-c2cccs2)nc2ccccc12
Result: 100

Q: Report measured MTC; entry is Nc1cc(-c2cccnc2)nc2ccccc12
Result: 85.7

Q: Output measured MTC for this item: CN(C)CCNc1cc(-c2ccc(F)cc2)nc2ccccc12
Result: 100

Q: Return value of MTC for input CC1CCN(c2cc(-c3ccccn3)nc3ccccc23)CC1 , no commentary.
Result: 100

Q: Read off the recorded MTC for CCN(CCN(C)C)c1cc(-c2cccnc2)nc2ccccc12
Result: 100

Q: Let me know recorded MTC for Nc1cc(-c2ccccn2)nc2ccccc12 , thanks.
Result: 100

Q: Given the molecule CC1CCCN(c2cc(-c3ccccn3)nc3ccccc23)C1 (configuration not stated) , write its reported MTC.
Result: 100

Q: Report MTC for CN(C)CCNc1cc(-c2ccccc2)nc2ccccc12
Result: 100

Q: Retrieve MTC measured for c1cncc(-c2cc(N3CCCCC3)c3ccccc3n2)c1 and print it.
Result: 100

Q: Report measured MTC; entry is CC(C)CNc1cc(-c2ccccc2)nc2ccccc12
Result: 100

Q: Report measured MTC; entry is c1cncc(-c2cc(N3CCCC3)c3ccccc3n2)c1
Result: 100

Q: Note MTC for the molecule shown: COc1ccc(-c2cc(NCCN(C)C)c3ccccc3n2)cc1
Result: 10

Q: Note down MTC recorded for CN(C)CCNc1cc(-c2cccs2)nc2ccccc12
Result: 10

Q: Output measured MTC for this item: Nc1cc(-c2cccs2)nc2ccccc12
Result: 10

Q: Read the entry CN1CCN(c2cc(-c3ccccc3)nc3ccccc23)CC1 and write its reported MTC.
Result: 100

Q: # return recorded MTC for input Cc1ccc(-c2cc(NCCN(C)C)c3ccccc3n2)cc1
Result: 10

Q: Return MTC (reported value) for this molecule: CCN(CCN(C)C)c1cc(-c2ccncc2)nc2ccccc12
Result: 100

Q: Could you please provide reported MTC for CC1CCCN(c2cc(-c3ccccc3)nc3ccccc23)C1 (configuration not stated) ? Thanks!
Result: 100

Q: State its MTC: CC1CCCCN1c1cc(-c2ccccc2)nc2ccccc12 (configuration not stated)
Result: 100

Q: Report MTC for CN(C)CCNc1cc(-c2ccccn2)nc2ccccc12
Result: 100

Q: Please indicate MTC recorded for CN(C)CCNc1cc(-c2ccc(Br)cc2)nc2ccccc12
Result: 100

Q: // Input: CN(C)CCNc1cc(-c2ccncc2)nc2ccccc12 . Output its MTC only.
Result: 100
